Tested on: PC-3 prostate
run description: NCI-60 one-dose screen, 48 h
measurement context: 10 µM unless noted
About 83,000 compounds went through this panel and 20% of them were active in at least one assay; those are over-represented in the sample as a whole. Activity calls are given as the source filed them. Rule for the calls: active = growth percent below 10; inactive = the rest.
Reply using exactly one outcome from active, inactive

O=C1Nc2cc(Cl)ccc2/C1=C/c1cccc(OCc2ccccn2)c1	inactive
CN(C)c1nc(NCCNS(=O)(=O)c2ccc(C(=O)/C=C/c3ccc(Cl)cc3)cc2)nc(Nc2ccc(F)cc2)n1	active
COc1ccc(C(=O)/C=C/c2cccc3ccccc23)cc1S(N)(=O)=O	inactive

Problem: Recorded test call requested for O=C(/C=C/Nc1ccc2oc(=O)ccc2c1)c1cc2cc(Br)ccc2oc1=O
Result: inactive

====

Test system: IGROV1 ovarian
run description: NCI-60 one-dose screen, 48 h (100 = growth as untreated, 0 = no growth, -100 = all killed)
measurement context: 10 µM unless noted
The panel holds about 83,000 compounds, 20% with a hit somewhere; the sample as a whole holds those more often.
In plain terms, low growth, meaning strictly below 70%, gives 1, and everything else gives -1.

Worked examples, 5 molecules total:
O=c1[nH]c(=O)c2c(-c3cc4ccccc4oc3=O)ccnc2[nH]1	-1
O=[N+]([O-])c1ccc(/C=C/c2nc3ccccc3n3c(=S)[nH]nc23)cc1	-1
O=C(NN1C(=O)/C(=C/C=C/c2ccc([N+](=O)[O-])o2)SC1=S)c1ccccc1O	1
COc1c(F)ccc(C(=O)Nc2ccc3nc(NC(=O)C4CCCN(S(=O)(=O)c5ccc(C#N)cc5)C4)sc3c2)c1F (stereo not given)	-1
CN(C)CCn1c2ccccc2c2nc3cc4ccccc4cc3nc21	1

Problem: Confirm or reject: growth of CC(C)c1ccc2c(N)c(C(=O)Nc3ccc(C(F)(F)F)cn3)sc2n1 lies strictly below 70%
Result: -1

Problem: Confirm or reject: growth of COc1cc(OC)cc(C(=O)Nc2cccc(-c3cn(-c4ccc(S(N)(=O)=O)cc4)nn3)c2)c1 lies strictly below 70%
Result: -1

Problem: Confirm or reject: growth of N/C(=N\c1nc2ccccc2s1)NC(=O)Nc1c(Cl)cccc1Cl lies strictly below 70%
Result: 1

Problem: Confirm or reject: growth of N/N=C(\N)c1c(N)nc(=S)[nH]c1-c1ccc(Cl)cc1Cl lies strictly below 70%
Result: -1

Problem: Confirm or reject: growth of Clc1cccc(-c2ccc(OCCCN3CCN(c4ccncc4)CC3)cc2)c1 lies strictly below 70%
Result: 1

Problem: Confirm or reject: growth of COc1ccc2oc(=O)c(C3(C)NC(=O)c4c(/C=C/C(=O)OC(C)(C)C)cccc4N3)cc2c1 (stereo not given) lies strictly below 70%
Result: 1

Problem: Confirm or reject: growth of NS(=O)(=O)c1ccc(-n2cc(-c3cccc(NC(=O)c4ccc(Cl)c(C(F)(F)F)c4)c3)nn2)cc1 lies strictly below 70%
Result: 1

Problem: Confirm or reject: growth of CCCn1cc(-c2nc(Nc3ccc(C(=O)NCCCCNc4cccc5c4C(=O)N(C4CCC(=O)NC4=O)C5=O)cc3)nc3[nH]ccc23)cn1 (stereo not given) lies strictly below 70%
Result: 1

Problem: Confirm or reject: growth of C#C[C@]1(O)CC[C@H]2[C@@H]3CC=C4c5sc(-c6ccc([N+](=O)[O-])cc6)nc5CC[C@]4(C)[C@H]3CC[C@@]21C lies strictly below 70%
Result: 1

Value source: PubChem BioAssay (NCI)
